System: HCV replication
Experiment: Replicon Assay (Huh-lucubineo-ET cells, luciferase readout)
Assay type: cell-based
Conditions: Hepatitis C virus; ET (Huh-lucubineo-ET) HCV replicon cell line; luciferase activity 48-72 hours after compound addition; 6 dilutions
pEC50: −log10 of the molar value.
Overview of recorded pEC50 for various compounds

| mol-smiles | reported-relation | pEC50 |
| --- | --- | --- |
| CCCOc1ccc(-c2ccc(Cn3cc4nc(-c5ccccc5F)nc-4cn3)cn2)c(C(F)(F)F)c1 | = | 7.48 |
| CCOC(=O)CCc1ccc(-c2ccc(Cn3cc4nc(-c5cccc(F)c5F)nc-4cn3)nn2)cc1 | = | 4.28 |
| Fc1cccc(-c2nc3cnn(Cc4ccc(-c5ccc(-c6ccccn6)cc5C(F)(F)F)nn4)cc-3n2)c1F | ≤ | 4.30 |
| COc1ccc(-c2ccc(Cn3cc4nc(-c5cccc(F)c5F)nc-4cn3)nc2[N+](=O)[O-])c(C(F)(F)F)c1 | = | 6.12 |
